Recorded values, source patent US4843087A.

system: Polio 2; experiment: microbe, parasite or virus in culture; format: cell-based, poliovirus; conditions: Enterovirus C, HeLa, read-out: Polio 2 MIC
The threshold is 1 µg/mL. Values of MIC beneath it are tagged Criterion met; values meeting or exceeding it are tagged Criterion not met.

Cc1cc(CCCCC(C)Oc2c(Cl)cc(C3=NCCO3)cc2Cl)on1 (centres unmarked) | Criterion not met
Cc1cc(CCCCCCCOc2ccc(C3=NC(CO)CO3)cc2)on1 (centres unmarked) | Criterion not met
Cc1cc(CCCCCOc2ccc(C3=NCCO3)c(Cl)c2)on1 | Criterion met
C=Cc1cc(C2=NCCO2)ccc1OCCCCCc1cc(C)no1 | Criterion met
Cc1cc(CCCCCCOc2ccc(C3=NCCO3)cc2Cl)on1 | Criterion met
Cc1cc(CCCOCOCCOc2ccc(C3=NCCO3)cc2Cl)on1 | Criterion not met

Lab log: compare recorded MIC with 1 µg/mL; is it strictly lower for `Cc1cc(CCCCCOc2ccc(C3=NCCO3)cc2[N+](=O)[O-])on1` ? Criterion met

Lab log: compare recorded MIC with 1 µg/mL; is it strictly lower for Cc1cc(C(O)CCCCCCOc2ccc(C3=NCCO3)cc2)on1 (centres unmarked) ? Criterion met

Lab log: compare recorded MIC with 1 µg/mL; is it strictly lower for `Cc1cc(CCCCCOc2ccc(-c3nc(C)c(C)o3)cc2C)on1` ? Criterion not met

Lab log: compare recorded MIC with 1 µg/mL; is it strictly lower for `COCc1cc(CCCCCOc2c(Cl)cc(C3=NCCO3)cc2Cl)on1` ? Criterion met

Lab log: compare recorded MIC with 1 µg/mL; is it strictly lower for `Cc1cc(CCCCCCCOc2ccc(-c3ncco3)cc2)on1` ? Criterion met

* * *

test system: human rhinovirus (HRV) serotypes; assay: microbe, parasite or virus in culture; assay type: cell-based; settings: read-out: Rhinovirus MIC50
Dear colleague, classification is by MIC50, with ranges listed here: lower bin: < 0.2 µg/mL; middle bin: ≥ 0.2 µg/mL and < 1 µg/mL; upper bin: ≥ 1 µg/mL

Cc1cc(CCCOCOCCOc2ccc(C3=NCCO3)cc2Cl)on1 | upper bin
Cc1cc(CCCCC[S+]([O-])c2ccc(C3=NCCO3)cc2)on1 (stereo not drawn) | upper bin
Cc1cc(CCCC(C)Oc2c(Cl)cc(C3=NCCO3)cc2Cl)on1 (stereo not drawn) | middle bin
Cc1cc(CCCCCOc2ccc(C3=NCCO3)cc2[N+](=O)[O-])on1 | lower bin
Cc1cc(CCCCCOc2ccc(C3=NCCO3)cc2N(C)C)on1 | middle bin
Cc1noc(CCCCCCCOc2ccc(C3=NCCO3)cc2)c1CCl | upper bin
Cc1cc(CCCCCOc2c(C)cc(C3=NCCO3)cc2C)on1 | lower bin
Cc1cc(CCCCCOc2c(F)cc(C3=NCCO3)cc2F)on1 | lower bin
COc1cc(C2=NCCO2)cc(OC)c1OCCCCCc1cc(C)no1 | upper bin
Cc1cc(CCCCCOc2ccc(C3=NCCO3)cc2C(C)(C)C)on1 | upper bin

Classify this molecule: `CCc1cc(C(=O)NCCCl)cc(C)c1OCCCCCc1cc(C)no1` middle bin

Classify this molecule: `CCc1cc(C2=NCCO2)ccc1OCCCCCc1cc(C)no1` lower bin

Classify this molecule: `COc1cc(C(=O)NCCCl)cc(OC)c1OCCCCCc1cc(C)no1` upper bin

Classify this molecule: `CCC[C@H]1COC(c2ccc(OCCCCCCCc3cc(C)no3)cc2)=N1` middle bin

Classify this molecule: C=CCC1COC(c2ccc(OCCCCCCCc3cc(C)no3)cc2)=N1 (stereo not drawn) middle bin

Classify this molecule: `Cc1cc(CCC=CCOc2ccc(C3=NCCO3)cc2Cl)on1` middle bin

Classify this molecule: `Cc1cc(CCCCCOc2ccc(C3=NCCO3)c(Cl)c2)on1` middle bin

* * *

test system: human rhinovirus (HRV) serotypes; experiment: microbe, parasite or virus in culture; assay type: cell-based; settings: read-out: Rhinovirus MIC50
endpointName: log10(MIC50) (log10 of the value in µg/mL)
Short version: log10 scale, MIC50, µg/mL.

A selection of reference data follows.
Cc1cc(CCCCCOc2c(Cl)cc(-c3nc(C)c(C)o3)cc2Cl)on1 | -0.49
Cc1cc(CCCCCOc2ccc(-c3ncco3)cc2)on1 | -0.42
Cc1cc(CC/C=C\COc2c(Cl)cc(C3=NCCO3)cc2Cl)on1 | -1.10
Cc1cc(COCCCCCOc2ccc(C3=NCCO3)cc2)on1 | 0.11
Cc1cc(CCCCCOc2ccc(C3=NC(C)(C)CO3)cc2Cl)on1 | 1.70

Query `Cc1cc(CCCCCCCOc2ccc(C3=NCCO3)cc2C)on1` yields log10(MIC50) of -0.82

* * *

test system: Polio 2; assay: microbe, parasite or virus in culture; assay type: cell-based, poliovirus; details: Enterovirus C, HeLa, read-out: Polio 2 MIC
List of MIC values.

A selection of reference data follows.
Cc1cc(CCCCCOc2cccc(C3=NCCO3)c2)on1 | > 0.2 µg/mL
Cc1cc(CCCCCCOc2ccc(C3=NC(C)CO3)cc2Cl)on1 (stereo not drawn) | 2.3 µg/mL
Cc1cc(CCCCCCCOc2ccc(C3=NC[C@@H](C)O3)cc2)on1 | 1.01 µg/mL
Cc1cc(CCCCCOc2ccc(C3=NC(C)(C)CO3)cc2)on1 | 0.51 µg/mL
COc1cc(C2=NCCO2)ccc1OCCCCCCCc1cc(C)no1 | 1 µg/mL
Cc1cc(CCCCCCCc2ccc(C3=NCCO3)cc2)on1 | 0.09 µg/mL
Cc1cc(CCCCCOc2ccc(-c3nc(C)c(C)o3)cc2)on1 | 0.16 µg/mL
Cc1cc(CCCCCOc2ccc(C3=NCCO3)cc2N(C)C)on1 | 6.2 µg/mL

# next compound below
Query `Cc1cc(CCCCCOc2ccc(-c3ncco3)cc2Br)on1` yields MIC of 0.07 µg/mL

* * *

List of MIC50 values.
system: human rhinovirus (HRV) serotypes; assay: microbe, parasite or virus in culture; type: cell-based; settings: read-out: Rhinovirus MIC50

COCc1cc(CCCCCOc2c(Cl)cc(C3=NCCO3)cc2Cl)on1 | 0.09 mg/L
Cc1cc(CCCCCCCOc2ccc(C3=N[C@@H](C(C)C)CO3)cc2)on1 | 1.23 mg/L
Cc1cc(CCCCCCCOc2ccc(C3=NC(CO)CO3)cc2)on1 (stereo not shown) | 51 mg/L
Cc1cc(CCCCCCOc2ccc(C3=NCCO3)cc2Cl)on1 | 0.08 mg/L
Cc1cc(CCCCCCCOc2ccc(C3=NCCO3)c(C)c2)on1 | 0.69 mg/L
Cc1cc(CCCCCCCOc2ccc(C3=NCC(C)O3)cc2)on1 (stereo not shown) | 0.2 mg/L

Reported human rhinovirus (HRV) serotypes MIC50 for item `Cc1cc(CCCCCCCOc2ccc(C3=NC[C@H](C)O3)cc2)on1` was 0.24 mg/L

Reported human rhinovirus (HRV) serotypes MIC50 for item `Cc1cc(CCCCCCCOc2ccc(-c3nc(C)co3)cc2)on1` was 0.335 mg/L

Reported human rhinovirus (HRV) serotypes MIC50 for item `Cc1cc(CCCCCOc2ccc(-c3nc(C)c(C)o3)cc2C)on1` was 0.2 mg/L

Reported human rhinovirus (HRV) serotypes MIC50 for item `Cc1cc(CC/C=C/COc2c(Cl)cc(C3=NCCO3)cc2Cl)on1` was 0.09 mg/L
